System: S. aureus DSM 20231
Experiment: Bliss interaction score (quartile over a dose matrix) (fitness difference); higher = more antagonism (negative = synergy);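 also: first quartile when negative (synergy) and third quartile when positive (antagonism)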
propertyName: Bliss interaction score
Form: value (number only, do not type unit).

Item under review: CC[C@H]1OC(=O)[C@H](C)[C@@H](O[C@H]2C[C@@](C)(OC)[C@@H](O)[C@H](C)O2)[C@H](C)[C@@H](O[C@@H]2O[C@H](C)C[C@H](N(C)C)[C@H]2O)[C@](C)(O)C[C@@H](C)CN(C)[C@H](C)[C@@H](O)[C@]1(C)O [Azithromycin] + CC[C@H]1OC(=O)[C@H](C)C(=O)[C@H](C)[C@@H](O[C@@H]2O[C@H](C)C[C@H](N(C)C)[C@H]2O)[C@](C)(OC)C[C@@H](C)C(=O)[C@H](C)[C@H]2N(CCCCn3cnc(-c4cccnc4)c3)C(=O)O[C@]12C [Telithromycin] . Reported Bliss interaction score?
-0.0311

Item under review: CC[C@H]1OC(=O)[C@H](C)[C@@H](O[C@H]2C[C@@](C)(OC)[C@@H](O)[C@H](C)O2)[C@H](C)[C@@H](O[C@@H]2O[C@H](C)C[C@H](N(C)C)[C@H]2O)[C@](C)(O)C[C@@H](C)CN(C)[C@H](C)[C@@H](O)[C@]1(C)O [Azithromycin] + CCC[C@@H]1C[C@@H](C(=O)N[C@@H]([C@H]2O[C@H](SC)[C@H](O)[C@@H](O)[C@H]2O)[C@H](C)Cl)N(C)C1 [Clindamycin] . Reported Bliss interaction score?
-0.0395

Item under review: O=C(O)[C@H]1/C(=C/CO)O[C@@H]2CC(=O)N21 [Clavulanic] + CO[C@@]12[C@H](COC(N)=O)C3=C(C(=O)C(C)=C(N)C3=O)N1C[C@@H]1N[C@@H]12 [MitomycinC] . Reported Bliss interaction score?
-0.0996

Item under review: O=C(O)[C@H]1/C(=C/CO)O[C@@H]2CC(=O)N21 [Clavulanic] + CC(=O)NC[C@H]1CN(c2ccc(N3CCOCC3)c(F)c2)C(=O)O1 [Linezolid] . Reported Bliss interaction score?
-0.196

Item under review: CC1=C(C(=O)O)N2C(=O)[C@@H](NC(=O)[C@H](N)c3ccccc3)[C@H]2SC1 [Cephalexin] + C[n+]1ccc(-c2cc[n+](C)cc2)cc1 [Paraquat] . Reported Bliss interaction score?
0.0584

Item under review: O=C(O)[C@H]1/C(=C/CO)O[C@@H]2CC(=O)N21 [Clavulanic] + CN[C@@H]1[C@H](O)[C@H](NC)[C@H]2O[C@@]3(O)C(=O)C[C@@H](C)O[C@H]3O[C@@H]2[C@H]1O [Spectinomycin] . Reported Bliss interaction score?
0.137

Item under review: Clc1ccc(COC(Cn2ccnc2)c2ccc(Cl)cc2Cl)c(Cl)c1 (stereo not drawn) [Miconazole] + CO[C@@]12[C@H](COC(N)=O)C3=C(C(=O)C(C)=C(N)C3=O)N1C[C@@H]1N[C@@H]12 [MitomycinC] . Reported Bliss interaction score?
0.0383

Item under review: C[n+]1ccc(-c2cc[n+](C)cc2)cc1 [Paraquat] + Cn1nnc(-c2ccc(-c3ccc(N4C[C@H](CO)OC4=O)cc3F)cn2)n1 [Tedizolid] . Reported Bliss interaction score?
0.0784

----------
Test system: S. pneumoniae D39V
Assay: Bliss interaction score (quartile over a dose matrix) (fitness difference); higher = more antagonism (negative = synergy)
Label t when Bliss interaction score is at or above -0.1; otherwise label f.

Check if Bliss interaction score >= -0.1 (inclusive). Item: CC1=C(C(=O)O)N2C(=O)[C@@H](NC(=O)[C@H](N)c3ccccc3)[C@H]2SC1 [Cephalexin] + C[C@@H]1O[C@@H]1P(=O)(O)O [Fosfomycin]
f

Check if Bliss interaction score >= -0.1 (inclusive). Item: O=C(O)[C@H]1/C(=C/CO)O[C@@H]2CC(=O)N21 [Clavulanic] + CC1(C)S[C@@H]2[C@H](NC(=O)Cc3ccccc3)C(=O)N2[C@H]1C(=O)O [PenicillinG]
t

Check if Bliss interaction score >= -0.1 (inclusive). Item: Clc1ccc(COC(Cn2ccnc2)c2ccc(Cl)cc2Cl)c(Cl)c1 (stereo not given) [Miconazole] + Oc1cc(Cl)ccc1Oc1ccc(Cl)cc1Cl [Triclosan]
t

Check if Bliss interaction score >= -0.1 (inclusive). Item: CC[C@H]1OC(=O)[C@H](C)[C@@H](O[C@H]2C[C@@](C)(OC)[C@@H](O)[C@H](C)O2)[C@H](C)[C@@H](O[C@@H]2O[C@H](C)C[C@H](N(C)C)[C@H]2O)[C@](C)(O)C[C@@H](C)CN(C)[C@H](C)[C@@H](O)[C@]1(C)O [Azithromycin] + O=C(O[C@@H]1Cc2c(O)cc(O)cc2O[C@@H]1c1cc(O)c(O)c(O)c1)c1cc(O)c(O)c(O)c1 [EGCG]
t

src = the supplement of paper PMC10627819
